// reported log10(Kd) for each item listed
# tested_target: T1, PUF4 RNA-binding domain (Saccharomyces cerevisiae, UniProt P25339 537-888)
# T1 sequence: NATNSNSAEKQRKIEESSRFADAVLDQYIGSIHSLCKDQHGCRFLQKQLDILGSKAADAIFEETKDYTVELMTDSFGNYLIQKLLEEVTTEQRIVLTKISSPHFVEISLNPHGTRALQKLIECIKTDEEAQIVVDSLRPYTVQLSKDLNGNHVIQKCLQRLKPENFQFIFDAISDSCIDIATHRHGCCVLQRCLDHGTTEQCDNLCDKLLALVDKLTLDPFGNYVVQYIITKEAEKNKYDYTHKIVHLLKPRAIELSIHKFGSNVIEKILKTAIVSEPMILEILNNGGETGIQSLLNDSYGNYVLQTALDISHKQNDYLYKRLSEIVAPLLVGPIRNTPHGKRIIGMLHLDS
# assay_notes: Mg; RNA-MaP; 20 mM Na-HEPES pH 7.4, 30 mM KOAc, 0.75 mM MgCl2, 0.1% Tween-20, 5% glycerol, 0.1 mg/mL BSA, 2 mM DTT; 25 C; 0.0125-409.6 nM protein
# condition_set: tags: N-His6-TEV cleaved; C-SNAP kept, Cy3B-labelled; label: tethered on chip by stalled RNA polymerase
Use the decimal logarithm of Kd (µM).

Reference set (3 entries):
Id_ii_S4_P5E.4_K5.3_C5.2_[C-2G]_H5.3_A5.1_F5.1_T5.2_[T11A]_[A12T] (ssRNA) RNA: UUUGACAACUGAUCGUUCUUUCUGUACACUUAUUAAUUUCUUUCUCGAUCAGUUGUCUUU | -2.55
UCUCUUUGUAUAACGUCUCUU (ssRNA) [Ic_S1_P4E.1_K4.1_C4.1_H4.1_A4.1_[T7A]_F4.1_[T8C]_[A9G]_T4.1] | -1.37
UCUCUUUGUAUAUAAUCUCUU (ssRNA) [Ia_S1_P4E.1_K4.1_C4.1_H4.1_A4.1_F4.1_[T8A]_T4.1] | -2.39

// query For UCUCUUUGUAAGUACGUCUCUU (ssRNA) [Ic_S1_P5E.1_K5.1_C5.1_H5.1_A5.1_[T5A]_[T6G]_[A7T]_F5.1_[T8A]_[T9C]_[A10G]_T5.1] , what is its reported log10(Kd)?
// result 0.35

// query For UCUCUUCUCUCUUUGUAUAUAUAUCUCUU (ssRNA) [Ie_S1_P3E.2_K3.1_C3.2_[+-2TCTCT]_H3.1_A3.1_F3.1_T3.2] , what is its reported log10(Kd)?
// result -2.37
